Biological target: Human immunodeficiency virus type 1 integrase (Human immunodeficiency virus 1)
Assay: Inhibition of HIV-1 integrase enzyme by integration method (experiment 1)
Recorded Endpoint: IC50 (µM)

a: NNC(=O)c1ccccc1O
b: NNC(=O)c1ccccc1S
Looking at recorded values for IC50, does a or b come in lower? Give the label of your selection.
a

* * *

Here the recorded pIC50 is given for each entry.
Target: Human immunodeficiency virus type 1 integrase (Human immunodeficiency virus 1, UniProt Q7ZJM1)
Sequence (Q7ZJM1 whole entry): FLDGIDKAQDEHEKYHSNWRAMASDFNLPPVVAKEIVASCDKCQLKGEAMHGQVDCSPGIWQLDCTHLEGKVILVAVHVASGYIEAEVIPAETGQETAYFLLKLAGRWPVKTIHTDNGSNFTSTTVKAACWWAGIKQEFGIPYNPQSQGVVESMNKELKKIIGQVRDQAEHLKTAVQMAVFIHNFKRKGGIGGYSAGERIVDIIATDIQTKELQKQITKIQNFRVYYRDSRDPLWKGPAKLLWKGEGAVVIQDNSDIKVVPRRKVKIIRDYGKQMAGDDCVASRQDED
Test: Inhibition of HIV-1 integrase enzyme
pIC50: −log10 of the molar value.

Look over these answered cases.
{"Compound": "NNC(=O)c1ccccc1N", "Recorded Endpoint": "pIC50", "Result": "< 4.00"}
{"Compound": "Nc1ccccc1C(=O)NNC(=O)c1ccccc1N", "Recorded Endpoint": "pIC50", "Result": "< 4.00"}
{"Compound": "NC(=O)c1ccccc1O [SALICYLAMIDE]", "Recorded Endpoint": "pIC50", "Result": "< 4.00"}
{"Compound": "O=C(NCCCNC(=O)c1ccccc1O)c1ccccc1O", "Recorded Endpoint": "pIC50", "Result": "< 3.70"}
{"Compound": "Nc1ccccc1C(=O)NNC(=O)c1ccccc1O", "Recorded Endpoint": "pIC50", "Result": "< 4.00"}
{"Compound": "NN(CC(O)COc1ccccc1)C(=O)c1ccccc1O (stereo not given)", "Recorded Endpoint": "pIC50", "Result": "< 3.70"}
{"Compound": "O=C(NNC(=O)c1ccccc1O)c1ccccc1", "Recorded Endpoint": "pIC50", "Result": "< 4.00"}
{"Compound": "O=C(NNCc1ccccc1O)c1ccccc1O", "Recorded Endpoint": "pIC50", "Result": 5.28}

I am curious: what pIC50 value has been reported for O=C(NNC(=O)c1ccccc1O)c1ccccc1O ?
6.14

Any idea what its pIC50 is? The compound is O=C(NNC(=O)c1ccccc1S)c1ccccc1O
5.24

Query: pIC50; subject: O=C(N/N=C/c1ccccc1O)c1ccccc1O
< 4.00

* * *

Target: Human immunodeficiency virus type 1 integrase (Human immunodeficiency virus 1, UniProt Q7ZJM1)
Test: Inhibition of HIV-1 integrase enzyme by 3'-processing method (experiment 1)
Recorded Endpoint: IC50 (µM)

A: NNC(=O)c1ccccc1O
B: NNC(=O)c1ccccc1S
Returns: the label, A or B , whose recorded IC50 is the lower number. Mark your selection by writing its label.
A
(A: 46 µM, B: 70 µM)

* * *

Molecular target: Human immunodeficiency virus type 1 integrase (Human immunodeficiency virus 1, UniProt Q7ZJM1)
Assay: Inhibition of HIV-1 integrase enzyme by 3'-processing method (experiment 2)
Recorded Endpoint: IC50 (µM)

a: NNC(=O)c1ccccc1O
b: NNC(=O)c1ccccc1S
Compare the recorded IC50 of a and b ; state which is larger. Kindly state the label of the option you pick.
a

* * *

Molecular target: Human immunodeficiency virus type 1 integrase (Human immunodeficiency virus 1, UniProt Q7ZJM1)
Assay: Inhibition of HIV-1 integrase enzyme by integration method (experiment 2)
pIC50: −log10 of the molar value.
Recorded Endpoint: pIC50

{"Smiles Notation": "NNC(=O)c1ccccc1S", "Recorded Endpoint": "pIC50", "Quantitative Result": 4.30}
{"Smiles Notation": "NNC(=O)c1ccccc1O", "Recorded Endpoint": "pIC50", "Quantitative Result": 4.37}

* * *

Molecular target: Human immunodeficiency virus type 1 integrase (Human immunodeficiency virus 1, UniProt Q7ZJM1)
Experiment: Inhibition of HIV-1 integrase enzyme by 3'-processing method
Recorded Endpoint: IC50

{"Molecule": "O=C(NNC(=O)c1ccccn1)c1ccccn1", "IC50": "> 100 µM"}
{"Molecule": "O=C(NNCC(O)COc1ccccc1)c1ccccc1O (configuration not stated)", "IC50": "> 200 µM"}
{"Molecule": "O=C(N/N=C/c1ccccc1O)c1ccccc1O", "IC50": "> 100 µM"}

IC50 for NN(CC(O)COc1ccccc1)C(=O)c1ccccc1O (configuration not stated) ?
> 200 µM

Can you look up the measured IC50 of O=C(NNC(=O)c1cc2ccccc2cc1O)c1ccccc1O for me?
2.3 µM

// query IC50 value for entry Nc1ccccc1C(=O)NNC(=O)c1ccccc1O
> 100 µM

Which IC50 is reported for this molecule? NNC(=O)c1ccccc1N
> 100 µM

* * *

Target: UniProt:Q7ZJM1
Experiment: Inhibition of HIV-1 integrase enzyme by 3'-processing method
Measured IC50 by item

Please review the entries below; each comes with its answer.
{"Molecule": "O=C(NCCCNC(=O)c1ccccc1O)c1ccccc1O", "IC50": "> 200 µM"}
{"Molecule": "CC(=O)NNC(=O)c1ccccc1O", "IC50": "> 100 µM"}
{"Molecule": "O=C(NNC(=O)c1ccccc1O)c1ccccc1O", "IC50": "2.07 µM"}
{"Molecule": "O=C(NNC(=O)c1ccccc1)c1ccccc1", "IC50": "> 100 µM"}
{"Molecule": "O=C(NNCc1ccccc1O)c1ccccc1O", "IC50": "6.7 µM"}
{"Molecule": "NC(=O)c1ccccc1O [SALICYLAMIDE]", "IC50": "> 100 µM"}
{"Molecule": "Nc1ccccc1C(=O)NNC(=O)c1ccccc1N", "IC50": "> 100 µM"}
{"Molecule": "O=C(NNC(=O)c1ccccc1S)c1ccccc1O", "IC50": "9.1 µM"}

Proceeding to the next molecule to report its IC50.
Given O=C(NNC(=O)c1ccccc1O)c1ccccc1 , state its recorded IC50.
> 100 µM

* * *

Biological target: Human immunodeficiency virus type 1 integrase (Human immunodeficiency virus 1, UniProt Q7ZJM1)
Assay: Inhibition of HIV-1 integrase enzyme by integration method
Recorded Endpoint: IC50

Quick check: IC50 of O=C(NNCC(O)COc1ccccc1)c1ccccc1O (stereo unspecified) ?
> 200 µM

* * *

Biological target: Human immunodeficiency virus type 1 integrase (Human immunodeficiency virus 1)
Test: Inhibition of HIV-1 integrase enzyme
Recorded Endpoint: IC50

{"Smiles Notation": "CC(=O)NNC(=O)c1ccccc1O", "IC50": "> 100 µM"}
{"Smiles Notation": "O=C(NNC(=O)c1ccccn1)c1ccccn1", "IC50": "> 100 µM"}
{"Smiles Notation": "O=C(NNC(=O)c1ccccc1)c1ccccc1", "IC50": "> 100 µM"}

Here is the next item to consider.
# IC50 lookup, item O=C(NNC(=O)c1cc2ccccc2cc1O)c1ccccc1O
1.1 µM
